read-out: Vascular cell adhesion molecule 1 (VCAM1), VCAM1 (gene 7412); assay: BSK_CASM3C_VCAM1: BioMAP Diversity Plus: CASM3C Assay for Vascular cell adhesion molecule 1 (VCAM1) Biomarker Activity (AID 2283055); details: primary human coronary artery smooth muscle cells; actives raise or lower the signal;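 also: VCAM-1 protein level quantified by ELISA on the cells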
Calls of active or inactive are those of the source. The calls were made as follows: active = hit-call score of the fitted dose curve at least 0.9, where 1 is the maximum; inactive = score below 0.9.
Response enum: T = active, F = inactive

{"compound": "CCC(=O)OCC=Cc1ccccc1", "category label": "F"}

Task item: Test call, this compound: CC(=O)CCC=C(C)CCC=C(C)C
Reply: T

Task item: Also CCCO[Si](OCCC)(OCCC)OCCC , if possible.
Reply: F

Task item: Also CCCCCCCCCC(=O)OCC , if possible.
Reply: T

Task item: Also OCC(F)(OC(F)(F)C(F)(OC(F)(F)C(F)(F)C(F)(F)F)C(F)(F)F)C(F)(F)F (configuration not stated) , if possible.
Reply: F

Task item: Also CC1(C)[C@H](C=C(Cl)Cl)[C@H]1C(=O)OCc1cccc(Oc2ccccc2)c1 , if possible.
Reply: F

====

target: Retinoic acid receptor alpha (Homo sapiens) (UniProt P10276); test: ATG_DR5_RAR_CIS: Attagene CIS-FACTORIAL HepG2 Assay for human Retinoic Acid Receptor Alpha (RARE), DR5 submotif (AID 2282934); conditions: HepG2 Attagene cis-factorial RARE DR5 reporter, mRNA; actives raise or lower the signal
Sequence (P10276 whole entry, looked up): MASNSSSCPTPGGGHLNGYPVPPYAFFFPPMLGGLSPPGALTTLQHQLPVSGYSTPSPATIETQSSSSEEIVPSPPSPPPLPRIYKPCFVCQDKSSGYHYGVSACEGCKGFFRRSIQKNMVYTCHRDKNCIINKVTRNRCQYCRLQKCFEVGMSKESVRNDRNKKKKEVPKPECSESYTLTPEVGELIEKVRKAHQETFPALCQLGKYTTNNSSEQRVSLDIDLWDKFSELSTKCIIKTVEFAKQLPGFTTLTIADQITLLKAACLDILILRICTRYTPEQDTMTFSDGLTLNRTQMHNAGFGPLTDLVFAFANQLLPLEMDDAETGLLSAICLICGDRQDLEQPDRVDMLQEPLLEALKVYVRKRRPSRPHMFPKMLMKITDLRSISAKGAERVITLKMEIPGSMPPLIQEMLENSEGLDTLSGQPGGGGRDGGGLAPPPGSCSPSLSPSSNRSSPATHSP
Calls of active or inactive are those of the source. The calls were made as follows: active = hit-call score of the fitted dose curve at least 0.9, where 1 is the maximum; inactive = score below 0.9.
Response enum: active, inactive

{"compound": "CN1CCc2cccc3c2[C@H]1Cc1ccc(O)c(O)c1-3", "category label": "active"}
{"compound": "c1ccc(Sc2ccccc2)cc1", "category label": "inactive"}
{"compound": "Nc1ccc(N)c([N+](=O)[O-])c1", "category label": "inactive"}
{"compound": "CCCCOCCOCCOCCO", "category label": "inactive"}
{"compound": "CC1=CC(O)CC(C)(C)C1 (stereo not drawn)", "category label": "inactive"}
{"compound": "O=Cc1ccccc1O", "category label": "inactive"}

Task item: Test call, this compound: CN(C)C(=O)Nc1ccccc1
Reply: inactive

Task item: Also CCOC(=O)CC1(C)OCC(C)O1 (stereo not drawn) , if possible.
Reply: inactive

====

read-out: Monokine induced gamma interferon (MIG), CXCL9 (gene 4283); assay: BSK_BE3C_MIG: BioMAP Diversity Plus: BE3C Assay for Monokine induced gamma interferon (MIG) Biomarker Activity (AID 2283035); conditions: primary human bronchial epithelial cells; actives raise or lower the signal
The source made the active and inactive calls. How the source made its calls: active means hit-call score of the fitted dose curve at least 0.9, where 1 is the maximum; inactive means score below 0.9.
value type: AC50

Consider the reported AC50 for these molecules:
{"molecule": "CC(C)Cc1ccc(C(C)C(=O)O)cc1 (centres undefined)", "AC50": "inactive"}
{"molecule": "CCCCN(CCO)CCO", "AC50": "inactive"}
{"molecule": "Nc1ccc(N)c([N+](=O)[O-])c1", "AC50": "inactive"}
{"molecule": "CC=CC(=O)C1=C(C)C=CCC1(C)C", "AC50": "inactive"}
{"molecule": "OCCN1CCOCC1", "AC50": "inactive"}

Task item: Which measured AC50 value corresponds to O=S1(=O)CC(Cl)(Cl)C(Cl)(Cl)C1 ?
Reply: 2040 nM (active)

Task item: Also CC(C)CCCC(C)(C)O , if possible.
Reply: inactive

Task item: Also CCCCCCCCCC(=O)OCC , if possible.
Reply: inactive

====

assay: ATG_TCF_b_cat_CIS: Attagene CIS-FACTORIAL HepG2 Assay for human T-Cell-Factor with beta-catenin (TCF/b-cat) (AID 2282965); settings: HepG2 TCF/beta-catenin cis-reporter transcription, actives raise or lower the signal
Calls of active or inactive are those of the source. Rule for the calls: active = hit-call score of the fitted dose curve at least 0.9, where 1 is the maximum; inactive = score below 0.9.
value type: AC50

{"molecule": "[Cu+]", "AC50": "inactive"}
{"molecule": "c1ccc(Sc2ccccc2)cc1", "AC50": "inactive"}
{"molecule": "CCCCCCCC1CCCC1=O (stereo not drawn)", "AC50": "inactive"}
{"molecule": "CCC(=O)OCC=Cc1ccccc1", "AC50": "inactive"}
{"molecule": "Cc1ccccc1S", "AC50": "55.9 µM (active)"}

Task item: Which measured AC50 value corresponds to CCO[Si](CCC#N)(OCC)OCC ?
Reply: inactive

Task item: Also CCOC(=O)CCCCCCCCC(=O)OCC , if possible.
Reply: inactive

Task item: Also Cc1cccc(O)c1 , if possible.
Reply: inactive

Task item: Also CC(C)(CO)CO , if possible.
Reply: inactive

Task item: Also COc1ccc(N)c(C)c1 , if possible.
Reply: 169 µM (active)

====

assay: TOX21_p53_BLA_p3_viability: Viability Assessment in the Tox21 HCT-116 p53 Agonism Beta-lactamase Assay, Phase 3 (AID 2283593);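 also: cells exposed to compound for 16 h before reading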
Results filed as inconclusive are left out. The source made the active and inactive calls. How the source made its calls: active means hit-call score of the fitted dose curve at least 0.9, where 1 is the maximum; inconclusive means response in the unintended direction; inactive means score below 0.9.
Response enum: class 1 (active), class 0 (inactive)

{"compound": "CCCO[Si](OCCC)(OCCC)OCCC", "category label": "class 0"}

Task item: Test call, this compound: NC(=O)c1cccnc1
Reply: class 0

Task item: Also N#CCCCC(C#N)CCC#N (stereo not given) , if possible.
Reply: class 0

Task item: Also CC(C)=CC(=O)O , if possible.
Reply: class 0

Task item: Also CC/C=C\CCOC(=O)C(C)C , if possible.
Reply: class 0

Task item: Also CCCCC(CC)COC(=O)COc1ccc(Cl)cc1C (stereo not given) , if possible.
Reply: class 0

Task item: Also CCCCC/C=C\C=C\C(=O)OCC , if possible.
Reply: class 1

Task item: Also CC(C)=CCCC(C)=CC(=O)O , if possible.
Reply: class 0

Task item: Also CC(C)(C)C1CCC(O)CC1 (stereo not given) , if possible.
Reply: class 0

Task item: Also C=CC(O)CCCCC (stereo not given) , if possible.
Reply: class 0

====

biological target: Estrogen receptor (Homo sapiens) + Estrogen receptor beta (Homo sapiens) (UniProt P03372+Q92731); assay: OT_ER_ERaERb_1440: Odyssey Thera (OT) 24-hour HEK293T Protein-Complementation Assay for Estrogen Receptor-alpha/-beta Homodimer (AID 2283356);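 also: heteromer of ER alpha and ER beta binding domains; hits raise reporter fluorescence and both agonists and antagonists give an increase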
Sequence (P03372 whole entry, looked up, the tested form may be a part): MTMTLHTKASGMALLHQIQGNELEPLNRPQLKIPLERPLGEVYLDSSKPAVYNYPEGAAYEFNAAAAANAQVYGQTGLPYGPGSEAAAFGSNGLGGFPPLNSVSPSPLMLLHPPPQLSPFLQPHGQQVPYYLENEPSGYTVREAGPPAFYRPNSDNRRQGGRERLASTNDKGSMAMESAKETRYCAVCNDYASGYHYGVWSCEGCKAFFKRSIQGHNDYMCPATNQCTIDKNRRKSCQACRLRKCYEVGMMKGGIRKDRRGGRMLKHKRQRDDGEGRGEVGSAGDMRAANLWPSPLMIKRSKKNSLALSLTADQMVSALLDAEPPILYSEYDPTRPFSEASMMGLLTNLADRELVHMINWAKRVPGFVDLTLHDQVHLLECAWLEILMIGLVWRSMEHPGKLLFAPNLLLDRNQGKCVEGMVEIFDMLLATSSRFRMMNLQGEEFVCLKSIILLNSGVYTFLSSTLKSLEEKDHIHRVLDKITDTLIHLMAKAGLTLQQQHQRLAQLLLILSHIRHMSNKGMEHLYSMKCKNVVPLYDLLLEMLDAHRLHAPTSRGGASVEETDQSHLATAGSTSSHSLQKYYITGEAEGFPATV
Sequence (Q92731 whole entry, looked up, the tested form may be a part): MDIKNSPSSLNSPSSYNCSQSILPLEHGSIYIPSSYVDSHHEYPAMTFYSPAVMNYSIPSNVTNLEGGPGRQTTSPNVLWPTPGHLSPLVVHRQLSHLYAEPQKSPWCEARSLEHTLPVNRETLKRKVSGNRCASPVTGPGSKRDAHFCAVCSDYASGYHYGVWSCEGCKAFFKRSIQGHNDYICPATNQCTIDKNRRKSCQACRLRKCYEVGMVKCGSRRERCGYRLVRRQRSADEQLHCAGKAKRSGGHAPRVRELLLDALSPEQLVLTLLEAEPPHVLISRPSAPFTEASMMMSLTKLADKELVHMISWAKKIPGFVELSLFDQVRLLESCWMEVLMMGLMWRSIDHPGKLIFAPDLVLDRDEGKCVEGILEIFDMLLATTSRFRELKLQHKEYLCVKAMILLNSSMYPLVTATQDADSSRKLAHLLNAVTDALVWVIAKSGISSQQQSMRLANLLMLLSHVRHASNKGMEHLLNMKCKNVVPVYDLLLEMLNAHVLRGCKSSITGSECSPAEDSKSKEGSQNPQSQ
Results filed as inconclusive are left out. Active and inactive are the calls of the source. The calls were made as follows: active = hit-call score of the fitted dose curve at least 0.9, where 1 is the maximum; inconclusive = response in the unintended direction; inactive = score below 0.9.
Response enum: Yes (active), No (inactive)

Task item: Test call, this molecule: CCCCCCCCCOS(=O)(=O)O
Reply: No

Task item: Also CCC(C)C1CCCCC1=O (stereo not given) , if possible.
Reply: No

Task item: Also CCCO , if possible.
Reply: No

Task item: Also CC(C)(C)C1CCC(O)CC1 (stereo not given) , if possible.
Reply: No

Task item: Also CCc1cccc(O)c1 , if possible.
Reply: No

Task item: Also C1CCCNCC1 , if possible.
Reply: No

Task item: Also CC12CCC(C1)C(C)(C)C2O (stereo not given) , if possible.
Reply: No

Task item: Also CCCCCC(=O)O[C@]1(C(C)=O)CC[C@H]2[C@@H]3CCC4=CC(=O)CC[C@]4(C)[C@H]3CC[C@@]21C , if possible.
Reply: Yes

Task item: Also Cc1cccc(O)c1 , if possible.
Reply: No

Task item: Also CN(C)C(=O)Nc1ccccc1 , if possible.
Reply: No

Task item: Also FC(F)(F)c1ccc(Cl)c(Cl)c1 , if possible.
Reply: No

Task item: Also CCCCCCCCOC(=O)c1ccc(O)cc1 , if possible.
Reply: Yes

Task item: Also c1ccc2scnc2c1 , if possible.
Reply: No

Task item: Also CN1CCc2cccc3c2[C@H]1Cc1ccc(O)c(O)c1-3 , if possible.
Reply: Yes

Task item: Also CCCCCCCCCCO[C@@H]1O[C@H](CO)[C@@H](O)[C@H](O)[C@H]1O , if possible.
Reply: No

====

read-out: Cytochrome P450 4A22 (Homo sapiens); assay: LTEA_HepaRG_CYP4A22: Life Technologies and Expression Analysis (LTEA) Assay for Cytochrome P450 4A22 (CYP4A22) using HepaRG (AID 2283495); conditions: mRNA level, 48 h; actives raise or lower the signal
The source made the active and inactive calls. The calls were made as follows: active = hit-call score of the fitted dose curve at least 0.9, where 1 is the maximum; inactive = score below 0.9.
value type: AC50

Consider the reported AC50 for these molecules:
{"compound": "C=C(C)C(N)=O", "AC50": "inactive"}
{"compound": "C#C[C@]1(O)CC[C@H]2[C@@H]3CCc4cc(O)ccc4[C@H]3CC[C@@]21C", "AC50": "inactive"}
{"compound": "C[C@]12CC[C@@H]3c4ccc(O)cc4CC[C@H]3[C@@H]1CC[C@@H]2O", "AC50": "50 µM (active)"}
{"compound": "O=C(c1ccc(OCCN2CCCCC2)cc1)c1c(-c2ccc(O)cc2)sc2cc(O)ccc12", "AC50": "inactive"}

Task item: Which measured AC50 value corresponds to CCCCOCCOCCO ?
Reply: inactive

====

test: BSK_3C_uPAR: BioMAP Diversity Plus: 3C Assay for Urokinase-type plasminogen activator receptor (uPAR) Biomarker Activity (AID 2282998); settings: BioMAP 3C HUVEC, uPAR biomarker ELISA; actives raise or lower the signal
The source made the active and inactive calls. How the source made its calls: active means hit-call score of the fitted dose curve at least 0.9, where 1 is the maximum; inactive means score below 0.9.
Response enum: 1.0 for active, 0.0 for inactive

Some solved cases for reference:
{"molecule": "CCCCCCCC1CCCC1=O (configuration not stated)", "category label": 1.0}
{"molecule": "C[C@]12CC[C@@H]3c4ccc(O)cc4CC[C@H]3[C@@H]1CC[C@@H]2O", "category label": 1.0}
{"molecule": "CCCCCCCCCCCCS", "category label": 1.0}
{"molecule": "CC=CC(=O)C1=C(C)C=CCC1(C)C", "category label": 0.0}
{"molecule": "C=C(C)C(=O)OCCC(F)(F)C(F)(F)C(F)(F)C(F)(F)C(F)(F)C(F)(F)C(F)(F)C(F)(F)F", "category label": 0.0}

Task item: Test call, this molecule: CC1(C)[C@H](C=C(Cl)Cl)[C@H]1C(=O)OCc1cccc(Oc2ccccc2)c1
Reply: 0.0

Task item: Also O=S1(=O)CC(Cl)(Cl)C(Cl)(Cl)C1 , if possible.
Reply: 1.0

Task item: Also CCCO[Si](OCCC)(OCCC)OCCC , if possible.
Reply: 0.0

Task item: Also C=C1CC/C=C(\C)CC[C@@H]2[C@@H]1CC2(C)C , if possible.
Reply: 1.0

Task item: Also OCCN1CCOCC1 , if possible.
Reply: 0.0

Task item: Also c1ccc(Sc2ccccc2)cc1 , if possible.
Reply: 1.0

Task item: Also O=S(=O)(O)C(F)(F)C(F)(F)OC(F)(F)C(F)(F)F , if possible.
Reply: 0.0

Task item: Also CC(=O)c1ccc(C)cc1 , if possible.
Reply: 0.0

Task item: Also CC(=O)OC(C)(C)C1CC=C(C)CC1 (configuration not stated) , if possible.
Reply: 1.0
